# target: canine FcRn (FcRn large subunit with canine beta-2-microglobulin) (canine)
# assay.info: SPR pH 7.4, FcRn coupled at high density, IgG 400 nM
observation.type: koff (s⁻¹)
Lab book: enter the figure in s⁻¹, no units written.

Guide cases for koff, answers given:
| binder | observation.type | number |
| --- | --- | --- |
| anti-NGF canine IgGB antibody, Fc variant N434R + Y436H (antibody, part only; not given: Anti-NGF variable domains, not shown: another chain or arm of the molecule) Fc: APEMLGGPSVFIFPPKPKDTLLIARTPEVTCVVVDLDPEDPEVQISWFVDGKQMQTAKTQPREEQFNGTYRVVSVLPIGHQDWLKGKQFTCKVNNKALPSPIERTISKARGQAHQPSVYVLPPSREELSKNTVSLTCLIKDFFPPDIDVEWQSNGQQEPESKYRTTPPQLDEDGSYFLYSKLSVDKSRWQRGDTFICAVMHEALHRHHTQESLSHSPGK | koff | 0.255 |
| anti-NGF canine IgGB antibody, Fc variant N434Y (antibody, part only; not given: Anti-NGF variable domains, not shown: another chain or arm of the molecule) Fc: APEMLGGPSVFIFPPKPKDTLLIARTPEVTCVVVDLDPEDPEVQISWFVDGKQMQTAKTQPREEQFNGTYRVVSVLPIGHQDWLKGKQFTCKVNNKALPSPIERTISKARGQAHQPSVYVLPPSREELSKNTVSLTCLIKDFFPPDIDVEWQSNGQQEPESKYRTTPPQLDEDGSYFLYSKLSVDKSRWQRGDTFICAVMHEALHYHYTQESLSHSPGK | koff | 0.23 |
| anti-NGF canine IgGB antibody, Fc variant A426H + T286L (antibody, part only; not given: Anti-NGF variable domains, not shown: another chain or arm of the molecule; small tags and cut ends) Fc: APEMLGGPSVFIFPPKPKDTLLIARTPEVTCVVVDLDPEDPEVQISWFVDGKQMQLAKTQPREEQFNGTYRVVSVLPIGHQDWLKGKQFTCKVNNKALPSPIERTISKARGQAHQPSVYVLPPSREELSKNTVSLTCLIKDFFPPDIDVEWQSNGQQEPESKYRTTPPQLDEDGSYFLYSKLSVDKSRWQRGDTFICHVMHEALHNHYTQESLSHSPGK | koff | 0.13 |

Query binder follows.
koff recorded for this binder, anti-NGF canine IgGB antibody, Fc variant A426H + D312P (antibody, part only; not given: Anti-NGF variable domains, not shown: another chain or arm of the molecule; small tags and cut ends) Fc: APEMLGGPSVFIFPPKPKDTLLIARTPEVTCVVVDLDPEDPEVQISWFVDGKQMQTAKTQPREEQFNGTYRVVSVLPIGHQPWLKGKQFTCKVNNKALPSPIERTISKARGQAHQPSVYVLPPSREELSKNTVSLTCLIKDFFPPDIDVEWQSNGQQEPESKYRTTPPQLDEDGSYFLYSKLSVDKSRWQRGDTFICHVMHEALHNHYTQESLSHSPGK , is 0.156
